# Test system: SMMC-7721
# test-description: Antiproliferative activity against human SMMC7721 by MTS assay
# Format: functional, cell-based
assay-readout: IC50 (µM)

Some compounds with recorded IC50:
# structure-string, study-system, assay-readout, reported-result
rows = [
    ("COc1ccc(C(=O)C[n+]2c(C)n(CC=C(c3cc4ccccc4o3)c3cc4ccccc4o3)c3ccccc32)cc1", "SMMC-7721", "IC50", 1.38),
    ("O=C(C[n+]1cn(CC=C(c2cc3ccccc3o2)c2cc3ccccc3o2)c2ccccc21)c1ccc(Br)cc1", "SMMC-7721", "IC50", 6.05),
    ("Cc1n(CC=C(c2cc3ccccc3o2)c2cc3ccccc3o2)c2ccccc2[n+]1CC(=O)c1ccc(-c2ccccc2)cc1", "SMMC-7721", "IC50", 1.67),
]

1. O=C(C[n+]1cn(CC=C(c2cc3ccccc3o2)c2cc3ccccc3o2)c2ccccc21)c1ccccc1
2. Cc1cc2c(cc1C)[n+](CC(=O)c1ccc(Br)cc1)cn2CC=C(c1cc2ccccc2o1)c1cc2ccccc2o1
Lookup: Could you check which of 1 and 2 has a smaller value for IC50? Pick one; state its label.
Found: 1
(1: 3.93 µM, 2: 7.81 µM)

###

# System: MCF7
# test-description: Antiproliferative activity against human MCF7 cells by MTS assay
# Format: functional, cell-based
assay-readout: IC50 (µM)

# structure-string, assay-readout, reported-result
data = [
    ("Cc1n(CC=C(c2cc3ccccc3o2)c2cc3ccccc3o2)c2ccccc2[n+]1CC(=O)c1ccc2ccccc2c1", "IC50", 0.97),
    ("Cc1n(CC=C(c2cc3ccccc3o2)c2cc3ccccc3o2)c2ccccc2[n+]1CC(=O)c1ccccc1", "IC50", 0.8),
    ("O=C(C[n+]1cn(CC=C(c2cc3ccccc3o2)c2cc3ccccc3o2)c2ccccc21)c1ccc2ccccc2c1", "IC50", 1.44),
]

P. O=C(C[n+]1cn(CC=C(c2cc3ccccc3o2)c2cc3ccccc3o2)c2ccccc21)c1ccccc1
Q. O=C(C[n+]1ccn(CC=C(c2cc3ccccc3o2)c2cc3ccccc3o2)c1)c1ccc2ccccc2c1
Lookup: Compare the recorded IC50 of P and Q ; state which is larger. Reply with the label of the item you choose.
Found: Q

A. Cc1cc2c(cc1C)[n+](CC(=O)c1ccc3ccccc3c1)cn2CC=C(c1cc2ccccc2o1)c1cc2ccccc2o1
B. O=C(C[n+]1ccn(CC=C(c2cc3ccccc3o2)c2cc3ccccc3o2)c1)c1ccc(Br)cc1
C. COc1ccc(C(=O)C[n+]2c(C)n(CC=C(c3cc4ccccc4o3)c3cc4ccccc4o3)c3ccccc32)cc1
D. O=C(C[n+]1ccn(CC=C(c2cc3ccccc3o2)c2cc3ccccc3o2)c1)c1ccccc1
Lookup: hey, can you rank those compounds up there by IC50? biggest number first please Would you mind listing the labels in the order asked for?
Found: D, B, A, C
(D: 11.2 µM, B: 7.29 µM, A: 2.38 µM, C: 0.64 µM)

A. Cc1cc2c(cc1C)[n+](CC(=O)c1ccc(Br)cc1)cn2CC=C(c1cc2ccccc2o1)c1cc2ccccc2o1
B. O=C(C[n+]1cn(CC=C(c2cc3ccccc3o2)c2cc3ccccc3o2)c2ccccc21)c1ccc(-c2ccccc2)cc1
Lookup: Among A and B , whose measured IC50 is the smaller figure? Identify your pick by its label.
Found: B

A. O=C(C[n+]1ccn(CC=C(c2cc3ccccc3o2)c2cc3ccccc3o2)c1)c1ccc(-c2ccccc2)cc1
B. Cc1cc2c(cc1C)[n+](CC(=O)c1ccccc1)cn2CC=C(c1cc2ccccc2o1)c1cc2ccccc2o1
Lookup: Please choose the item with the lower IC50 value from this pair: A and B Respond with the label that goes with your answer.
Found: B
(B: 3.42 µM, A: 7.57 µM)

###

# Test system: SMMC-7721
# test-description: Antiproliferative activity against human SMMC7721 by MTS assay
# Format: functional, cell-based
assay-readout: IC50 (µM)

For orientation, consider the following solved cases.
# structure-string, study-system, IC50 / µM
data = [
    ("Cc1n(CC=C(c2cc3ccccc3o2)c2cc3ccccc3o2)c2ccccc2[n+]1CC(=O)c1ccc(Br)cc1", "SMMC-7721", 6.84),
    ("O=C(C[n+]1ccn(CC=C(c2cc3ccccc3o2)c2cc3ccccc3o2)c1)c1ccc(Br)cc1", "SMMC-7721", 7.86),
    ("Cc1cc2c(cc1C)[n+](CC(=O)c1ccc3ccccc3c1)cn2CC=C(c1cc2ccccc2o1)c1cc2ccccc2o1", "SMMC-7721", 5.9),
]

P. Cc1n(CC=C(c2cc3ccccc3o2)c2cc3ccccc3o2)c2ccccc2[n+]1CC(=O)c1ccc2ccccc2c1
Q. Cc1cc2c(cc1C)[n+](CC(=O)c1ccc(-c3ccccc3)cc1)cn2CC=C(c1cc2ccccc2o1)c1cc2ccccc2o1
Lookup: Given the listed records, identify the one among P and Q with higher IC50. Give the chosen item's label as your response.
Found: Q

A. Cc1n(CC=C(c2cc3ccccc3o2)c2cc3ccccc3o2)c2ccccc2[n+]1CC(=O)c1ccccc1
B. COc1ccc(C(=O)C[n+]2cn(CC=C(c3cc4ccccc4o3)c3cc4ccccc4o3)c3cc(C)c(C)cc32)cc1
C. Cc1cc2c(cc1C)[n+](CC(=O)c1ccccc1)cn2CC=C(c1cc2ccccc2o1)c1cc2ccccc2o1
Lookup: List these items ordered by IC50, big to small. Answer by listing the labels in the requested order.
Found: B, C, A
(B: 9.46 µM, C: 6.38 µM, A: 1.34 µM)

A. COc1ccc(C(=O)C[n+]2cn(CC=C(c3cc4ccccc4o3)c3cc4ccccc4o3)c3ccccc32)cc1
B. O=C(C[n+]1cn(CC=C(c2cc3ccccc3o2)c2cc3ccccc3o2)c2ccccc21)c1ccc(-c2ccccc2)cc1
Lookup: For the pair A and B , which member has the lower IC50 number? Lab note: record the label of whichever item you select.
Found: A

1. O=C(C[n+]1cn(CC=C(c2cc3ccccc3o2)c2cc3ccccc3o2)c2ccccc21)c1ccc2ccccc2c1
2. O=C(C[n+]1ccn(CC=C(c2cc3ccccc3o2)c2cc3ccccc3o2)c1)c1ccc(-c2ccccc2)cc1
Lookup: Given 1 and 2 , report the one with the higher recorded IC50. Give the label under which the chosen entry appears.
Found: 2
(2: 8.04 µM, 1: 1.46 µM)

###

# System: SW480
# test-description: Antiproliferative activity against human SW480 cells by MTS assay
# Format: functional, cell-based
assay-readout: IC50 (µM)

# structure-string, study-system, display-unit, IC50
records = [
    ("O=C(C[n+]1ccn(CC=C(c2cc3ccccc3o2)c2cc3ccccc3o2)c1)c1ccc2ccccc2c1", "SW480", "µM", 6.97),
]

a. Cc1cc2c(cc1C)[n+](CC(=O)c1ccc(Br)cc1)cn2CC=C(c1cc2ccccc2o1)c1cc2ccccc2o1
b. COc1ccc(C(=O)C[n+]2c(C)n(CC=C(c3cc4ccccc4o3)c3cc4ccccc4o3)c3ccccc32)cc1
c. Cc1n(CC=C(c2cc3ccccc3o2)c2cc3ccccc3o2)c2ccccc2[n+]1CC(=O)c1ccc2ccccc2c1
Lookup: Order these by IC50, descending, and give the full ranking. // list labels; follow requested order
Found: a, c, b
(a: 7.93 µM, c: 1.54 µM, b: 0.88 µM)

###

# Test system: SW480
# test-description: Antiproliferative activity against human SW480 cells by MTS assay
# Assay type: functional, cell-based
pIC50: −log10 of the molar value.
assay-readout: pIC50

The following compounds have reported results that may help.
# structure-string, pIC50
records = [
    ("COc1ccc(C(=O)C[n+]2ccn(CC=C(c3cc4ccccc4o3)c3cc4ccccc4o3)c2)cc1", "< 4.70"),
    ("C(Cn1cnc2ccccc21)=C(c1cc2ccccc2o1)c1cc2ccccc2o1", "< 4.70"),
    ("Cc1nc2ccccc2n1CC=C(c1cc2ccccc2o1)c1cc2ccccc2o1", "< 4.70"),
    ("C(Cn1ccnc1)=C(c1cc2ccccc2o1)c1cc2ccccc2o1", "< 4.70"),
]

Please find the next compound below.
get_value(item= `Cc1cc2ncn(CC=C(c3cc4ccccc4o3)c3cc4ccccc4o3)c2cc1C` , readout=pIC50) returns < 4.70
